Species on record: Rattus norvegicus
Assay: Open TG-GATES - Regimen: Daily Repeat
Format: toxicity, organism-based, Sprague-Dawley
Set-up: regimen Daily Repeat, gender Male, age 6 weeks
Details: in vivo, po, 0 mg/kg, 72 h, tissue Kidney, route gavage, dose level Control, time 3 day
The compounds listed here are annotated with their KIDNEY_TOTAL.
State the value, then name its unit.

Reference set (3 entries):
| Compound | KIDNEY_TOTAL |
| --- | --- |
| CCc1oc2ccccc2c1C(=O)c1cc(Br)c(O)c(Br)c1 [BENZBROMARONE] | 2 g |
| CCC1(c2ccccc2)C(=O)NC(=O)NC1=O [PHENOBARBITAL] | 1.9 g |
| CN(C)C(=N)N=C(N)N [METFORMIN] | 2 g |

[in] Kindly indicate its recorded KIDNEY_TOTAL. Item: CC1=C(CC(=O)O)c2cc(F)ccc2/C1=C\c1ccc([S+](C)[O-])cc1 (stereo unspecified)
[out] 1.9 g

[in] Kindly indicate its recorded KIDNEY_TOTAL. Item: CN(C)CCC=C1c2ccccc2COc2ccccc21 [DOXEPIN]
[out] 2 g

[in] Kindly indicate its recorded KIDNEY_TOTAL. Item: CC(C)N(CCC(C(N)=O)(c1ccccc1)c1ccccn1)C(C)C (stereo unspecified) [DISOPYRAMIDE]
[out] 2 g

[in] Kindly indicate its recorded KIDNEY_TOTAL. Item: O=NN(CCCl)C(=O)NC1CCCCC1 [LOMUSTINE]
[out] 2 g

[in] Kindly indicate its recorded KIDNEY_TOTAL. Item: CCCCc1oc2ccccc2c1C(=O)c1cc(I)c(OCCN(CC)CC)c(I)c1 [AMIODARONE]
[out] 2 g

[in] Kindly indicate its recorded KIDNEY_TOTAL. Item: CC[C@H]1[C@@H]2C[C@H]3[C@@H]4N(C)c5ccccc5[C@]45C[C@@H]([C@@H]2[C@H]5O)N3[C@@H]1O [AJMALINE]
[out] 1.9 g

[in] Kindly indicate its recorded KIDNEY_TOTAL. Item: OCCOCCN1CCN(C(c2ccccc2)c2ccc(Cl)cc2)CC1 (stereo unspecified) [HYDROXYZINE]
[out] 1.9 g

[in] Kindly indicate its recorded KIDNEY_TOTAL. Item: ClC(Cl)(Cl)Cl [CARBON TETRACHLORIDE]
[out] 1.9 g

* * *

Organism: Rattus norvegicus
Assay: Open TG-GATES - Regimen: Single
Type: toxicity, organism-based, Sprague-Dawley
Design: regimen Single, gender Male, age 6 weeks
Conditions: in vivo, po, 0 mg/kg, 9 h, tissue Plasma, route gavage, dose level Control
The molecules listed here are annotated with their DBIL.
State the value, then name its unit.

| Molecule | Result |
| --- | --- |
| CN(C)C(=N)N=C(N)N | 0.008 mg/dL |
| CN(C)CCC=C1c2ccccc2COc2ccccc21 [DOXEPIN] | 0 mg/dL |
| ClC(Cl)(Cl)Cl [CARBON TETRACHLORIDE] | 0.066 mg/dL |
| CCC1(c2ccccc2)C(=O)NC(=O)NC1=O | 0.062 mg/dL |

[in] Kindly indicate its recorded DBIL. Item: CC[C@H]1[C@@H]2C[C@H]3[C@@H]4N(C)c5ccccc5[C@]45C[C@@H]([C@@H]2[C@H]5O)N3[C@@H]1O
[out] 0.064 mg/dL

[in] Kindly indicate its recorded DBIL. Item: CC(C)N(CCC(C(N)=O)(c1ccccc1)c1ccccn1)C(C)C (stereo not given) [DISOPYRAMIDE]
[out] 0.002 mg/dL

[in] Kindly indicate its recorded DBIL. Item: CCc1oc2ccccc2c1C(=O)c1cc(Br)c(O)c(Br)c1
[out] 0.008 mg/dL

[in] Kindly indicate its recorded DBIL. Item: CC1=C(CC(=O)O)c2cc(F)ccc2/C1=C\c1ccc([S+](C)[O-])cc1 (stereo not given)
[out] 0.004 mg/dL

[in] Kindly indicate its recorded DBIL. Item: OCCOCCN1CCN(C(c2ccccc2)c2ccc(Cl)cc2)CC1 (stereo not given) [HYDROXYZINE]
[out] 0.012 mg/dL

[in] Kindly indicate its recorded DBIL. Item: O=NN(CCCl)C(=O)NC1CCCCC1
[out] 0.072 mg/dL

* * *

Organism: Rattus norvegicus
Test: Open TG-GATES - Regimen: Daily Repeat
Assay type: toxicity, organism-based, Sprague-Dawley
Design: regimen Daily Repeat, gender Male, age 6 weeks
Settings: in vivo, po, 0 mg/kg, 72 h, tissue Plasma, route gavage, dose level Control, time 3 day
Mark condition not met for GLC values under 200 mg/dL, and condition met for everything at or above.

Completed entries (count: 2):
| Molecule | Class |
| --- | --- |
| ClC(Cl)(Cl)Cl [CARBON TETRACHLORIDE] | condition met |
| OCCOCCN1CCN(C(c2ccccc2)c2ccc(Cl)cc2)CC1 (stereo not given) [HYDROXYZINE] | condition not met |

[in] Determine whether measured GLC meets or exceeds 200 mg/dL for CC1=C(CC(=O)O)c2cc(F)ccc2/C1=C\c1ccc([S+](C)[O-])cc1 (stereo not given)
[out] condition not met

[in] Determine whether measured GLC meets or exceeds 200 mg/dL for CCCCc1oc2ccccc2c1C(=O)c1cc(I)c(OCCN(CC)CC)c(I)c1
[out] condition met

[in] Determine whether measured GLC meets or exceeds 200 mg/dL for CN(C)C(=N)N=C(N)N
[out] condition not met

[in] Determine whether measured GLC meets or exceeds 200 mg/dL for O=NN(CCCl)C(=O)NC1CCCCC1
[out] condition not met

[in] Determine whether measured GLC meets or exceeds 200 mg/dL for CN(C)CCC=C1c2ccccc2COc2ccccc21 [DOXEPIN]
[out] condition not met

* * *

Species on record: Rattus norvegicus
Test: Open TG-GATES - Regimen: Daily Repeat
Assay type: toxicity, organism-based, Sprague-Dawley
Parameters: regimen Daily Repeat, gender Male, age 6 weeks
Conditions: in vivo, po, 0 mg/kg, 72 h, tissue Plasma, route gavage, dose level Control, time 3 day
Reported Endpoint: K (meq/L)
Give just the numeric value; meq/L need not be written.

Reference set (5 entries):
| Compound | K (meq/L) |
| --- | --- |
| CCCCc1oc2ccccc2c1C(=O)c1cc(I)c(OCCN(CC)CC)c(I)c1 [AMIODARONE] | 3.9 |
| OCCOCCN1CCN(C(c2ccccc2)c2ccc(Cl)cc2)CC1 (stereo not given) [HYDROXYZINE] | 4 |
| O=NN(CCCl)C(=O)NC1CCCCC1 [LOMUSTINE] | 5.1 |
| CCc1oc2ccccc2c1C(=O)c1cc(Br)c(O)c(Br)c1 [BENZBROMARONE] | 5.1 |
| ClC(Cl)(Cl)Cl [CARBON TETRACHLORIDE] | 3.9 |

[in] Kindly indicate its recorded K. Item: CN(C)CCC=C1c2ccccc2COc2ccccc21 [DOXEPIN]
[out] 4.3

[in] Kindly indicate its recorded K. Item: CC[C@H]1[C@@H]2C[C@H]3[C@@H]4N(C)c5ccccc5[C@]45C[C@@H]([C@@H]2[C@H]5O)N3[C@@H]1O [AJMALINE]
[out] 4.5

[in] Kindly indicate its recorded K. Item: CC1=C(CC(=O)O)c2cc(F)ccc2/C1=C\c1ccc([S+](C)[O-])cc1 (stereo not given)
[out] 4.2

[in] Kindly indicate its recorded K. Item: CN(C)C(=N)N=C(N)N [METFORMIN]
[out] 4

[in] Kindly indicate its recorded K. Item: CCC1(c2ccccc2)C(=O)NC(=O)NC1=O [PHENOBARBITAL]
[out] 4.9

* * *

The compounds listed here are annotated with their Bas.
Organism: Rattus norvegicus
Assay: Open TG-GATES - Regimen: Single
Type: toxicity, organism-based, Sprague-Dawley
Parameters: regimen Single, gender Male, age 6 weeks
Settings: in vivo, po, 0 mg/kg, 24 h, tissue Blood, route gavage, dose level Control
Give just the numeric value; % need not be written.

| Compound | Bas (%) |
| --- | --- |
| CC(C)N(CCC(C(N)=O)(c1ccccc1)c1ccccn1)C(C)C (stereo unspecified) [DISOPYRAMIDE] | 0 |
| CCc1oc2ccccc2c1C(=O)c1cc(Br)c(O)c(Br)c1 | 0 |
| CN(C)CCC=C1c2ccccc2COc2ccccc21 [DOXEPIN] | 0 |
| CC[C@H]1[C@@H]2C[C@H]3[C@@H]4N(C)c5ccccc5[C@]45C[C@@H]([C@@H]2[C@H]5O)N3[C@@H]1O | 0 |
| CCC1(c2ccccc2)C(=O)NC(=O)NC1=O | 0.6 |
| CC1=C(CC(=O)O)c2cc(F)ccc2/C1=C\c1ccc([S+](C)[O-])cc1 (stereo unspecified) | 0 |
| O=NN(CCCl)C(=O)NC1CCCCC1 | 0 |
| OCCOCCN1CCN(C(c2ccccc2)c2ccc(Cl)cc2)CC1 (stereo unspecified) [HYDROXYZINE] | 0.2 |
| ClC(Cl)(Cl)Cl [CARBON TETRACHLORIDE] | 0.2 |
| O=NN1CCOCC1 | 0 |

As a next step, examine the compound that follows.
[in] Kindly indicate its recorded Bas. Item: CN(C)C(=N)N=C(N)N
[out] 0
